Values from the supplement of paper PMC4466140

Biological target: AgAbp1
Assay: SPOT peptide array binding signal intensity (averaged, normalized) (arbitrary units (background-subtracted, floor 0; scale differs between SH3 domains)); higher = stronger binding of the SH3 domain to the peptide
What SPOT peptide array binding signal intensity was measured for each of the following?
// response body must contain only the number

Sure, the documented SPOT peptide array binding signal intensity for KRNRLKILLPFLEQS is 7

Sure, the documented SPOT peptide array binding signal intensity for FPPKRKPLLRPQRSD is 766

Sure, the documented SPOT peptide array binding signal intensity for SNRRPVPRRPSQPLN is 587

Sure, the documented SPOT peptide array binding signal intensity for RRTRLRPPTPLSQLL is 31.5

Sure, the documented SPOT peptide array binding signal intensity for SRSKPLPLTPNSKYN is 197

Sure, the documented SPOT peptide array binding signal intensity for KRKRFNLLLPKPYLT is 46
